- Read-out: E-selectin (Homo sapiens)
- procedure summary: BSK_3C_Eselectin: BioMAP Diversity Plus: 3C Assay for Eselectin Biomarker Activity (AID 2283015);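 on outcome: cell surface E-selectin protein quantified by ELISA 24 h after dosing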
- test context: primary human endothelial cells (HUVEC); actives raise or lower the signal
The source made the active and inactive calls. How the source made its calls: active means hit-call score of the fitted dose curve at least 0.9, where 1 is the maximum; inactive means score below 0.9.
Your reply should match one of these outcome classes. T for active, F for inactive

Solved entries:
CCCc1cc(=O)[nH]c(=S)[nH]1 | F
O=c1c(O)c(-c2ccc(O)c(O)c2)oc2cc(O)cc(O)c12 | T
c1cc(-c2ccncc2)ccn1 | F

Please examine the following record next.
INPUT: What outcome does the record of this test show for NCC1(Cc2noc(=O)[nH]2)CCCCC1 ?
OUTPUT: F

---

- Read-out: growth arrest and DNA damage 45 (GADD45G), GADD45G (gene 10912)
- procedure summary: LTEA_HepaRG_GADD45G: Life Technologies and Expression Analysis (LTEA) Assay for growth arrest and DNA damage 45 (GADD45G) using HepaRG (AID 2283499)
- test context: mRNA level, 48 h; actives raise or lower the signal
Active and inactive are the calls of the source. The calls were made as follows: active = hit-call score of the fitted dose curve at least 0.9, where 1 is the maximum; inactive = score below 0.9.
Your reply should match one of these outcome classes. yes = active, no = inactive

NS(=O)(=O)c1cc2c(cc1Cl)NCNS2(=O)=O | no

INPUT: What outcome does the record of this test show for Cc1c(C(=O)O)c(O)cc2c1C(=O)c1c(O)c([C@@H]3O[C@H](CO)[C@@H](O)[C@H](O)[C@H]3O)c(O)c(O)c1C2=O ?
OUTPUT: no

INPUT: What outcome does the record of this test show for CCCCCCCCCCC ?
OUTPUT: no

INPUT: What outcome does the record of this test show for C[Si]1(C)O[Si](C)(C)O[Si](C)(C)O[Si](C)(C)O1 ?
OUTPUT: no

INPUT: What outcome does the record of this test show for CCc1c(C(=O)NN2CCCCC2)nn(-c2ccc(Cl)cc2Cl)c1-c1ccc(Br)cc1 ?
OUTPUT: yes

INPUT: What outcome does the record of this test show for CCCCCCCCCCCCCCCCCC(=O)O ?
OUTPUT: no

INPUT: What outcome does the record of this test show for CCOC(=O)C(C)(C)Oc1ccc(Cl)cc1 ?
OUTPUT: no

INPUT: What outcome does the record of this test show for Nc1ccc2c(c1)C(=O)c1ccccc1C2=O ?
OUTPUT: yes

---

- system name: human Serotonin, 5-Hydroxytryptamine Receptor 3 (5HT3), HTR3A (gene 3359) (UniProt P46098)
- Sequence (P46098 whole entry, looked up): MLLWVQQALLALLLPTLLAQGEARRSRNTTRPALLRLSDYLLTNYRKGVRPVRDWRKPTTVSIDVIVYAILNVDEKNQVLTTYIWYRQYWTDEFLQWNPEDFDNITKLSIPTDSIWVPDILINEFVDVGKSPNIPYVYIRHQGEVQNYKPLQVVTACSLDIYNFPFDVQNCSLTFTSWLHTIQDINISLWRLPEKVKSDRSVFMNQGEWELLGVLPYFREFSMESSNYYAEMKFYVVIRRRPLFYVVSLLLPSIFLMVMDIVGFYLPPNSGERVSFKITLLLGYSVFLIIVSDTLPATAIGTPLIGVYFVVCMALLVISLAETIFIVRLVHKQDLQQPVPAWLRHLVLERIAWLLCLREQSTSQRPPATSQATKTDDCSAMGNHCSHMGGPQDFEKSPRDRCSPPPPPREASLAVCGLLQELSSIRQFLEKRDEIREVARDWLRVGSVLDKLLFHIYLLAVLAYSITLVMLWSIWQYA
- procedure summary: NVS_LGIC_h5HT3: NovaScreen (NVS) Ligand-Gated Ion Channel Assay for human Serotonin, 5-Hydroxytryptamine Receptor 3 (5HT3) (AID 2283325)
Results filed as inconclusive are left out. Activity calls are given as the source filed them. How the source made its calls: active means hit-call score of the fitted dose curve at least 0.9, where 1 is the maximum; inconclusive means response in the unintended direction; inactive means score below 0.9.
Your reply should match one of these outcome classes. active, inactive

Solved entries:
NCC1(Cc2noc(=O)[nH]2)CCCCC1 | inactive
CCOc1ccc2c(c1)C(C)=CC(C)(C)N2 | inactive
CNCc1cc(F)ccc1Oc1ccc(Cl)c(Cl)c1 | inactive

Please examine the following record next.
INPUT: What outcome does the record of this test show for COc1cc(C=O)ccc1O ?
OUTPUT: active

---

- system name: Agonist Androgen Response Element (ARE), AR (gene 367)
- procedure summary: OT_AR_ARELUC_AG_1440: Odyssey Thera (OT) 24-hour CHO-K1 Luciferase Assay for Agonist Androgen Response Element (ARE) (AID 2283379)
Records with an inconclusive call do not appear. Active and inactive are the calls of the source. The calls were made as follows: active = hit-call score of the fitted dose curve at least 0.9, where 1 is the maximum; inconclusive = response in the unintended direction; inactive = score below 0.9.
test readout: AC50

CCCCCC(=O)O | inactive
COc1ccc(S(=O)(=O)N2C(=O)[C@@](c3ccccc3OC)(N3C[C@H](O)C[C@H]3C(=O)N(C)C)c3cc(Cl)ccc32)c(OC)c1 | 0.694 µM (active)
Cc1ccc(C)c(C)c1 | inactive
COc1cc(C=O)ccc1O | 50 µM (active)
Cc1cccc([N+](=O)[O-])c1C | inactive
COc1ccc2c(c1)c(CC(=O)O)c(C)n2C(=O)c1ccc(Cl)cc1 | inactive
COCCOCCOC | inactive

INPUT: Query for Agonist Androgen Response Element (ARE), AR (gene 367): what AC50 does the record show for Cc1ccccc1Cl ?
OUTPUT: inactive

---

- Read-out: CYP3A5 (gene 1577)
- procedure summary: LTEA_HepaRG_CYP3A5: Life Technologies and Expression Analysis (LTEA) Assay for CYP3A5 using HepaRG (AID 2283493)
- test context: mRNA level, 48 h; actives raise or lower the signal
The source made the active and inactive calls. How the source made its calls: active means hit-call score of the fitted dose curve at least 0.9, where 1 is the maximum; inactive means score below 0.9.
Your reply should match one of these outcome classes. T = active, F = inactive

CN1CCCC1=O | F
CC(=O)Oc1ccccc1C(=O)O | F
Cc1nc(C)nc(N2C[C@@H](C)N(c3ccnc([C@@H](C)O)n3)[C@@H](C)C2)n1 | F

INPUT: What outcome does the record of this test show for Cc1ccc2ncccc2c1 ?
OUTPUT: F

INPUT: What outcome does the record of this test show for Nc1ccc2c(c1)C(=O)c1ccccc1C2=O ?
OUTPUT: T

INPUT: What outcome does the record of this test show for CCc1c(C(=O)NN2CCCCC2)nn(-c2ccc(Cl)cc2Cl)c1-c1ccc(Br)cc1 ?
OUTPUT: T

INPUT: What outcome does the record of this test show for COc1cc(S(=O)(=O)O)c(C)cc1N=Nc1c(O)ccc2cc(S(=O)(=O)O)ccc12 ?
OUTPUT: F

INPUT: What outcome does the record of this test show for CN1CCN(Cc2cc(-c3ccc4[nH]c(=O)oc4c3)co2)[C@@H](c2ccc(F)cc2)C1 ?
OUTPUT: F

---

- Read-out: Macrophage colony-stimulating factor (MCSF), CSF1 (gene 1435)
- procedure summary: BSK_CASM3C_MCSF: BioMAP Diversity Plus: CASM3C Assay for Macrophage colony-stimulating factor (MCSF) Biomarker Activity (AID 2283044);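 further: M-CSF protein amount quantified by ELISA after 24 h exposure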
- test context: primary human coronary artery smooth muscle cells; actives raise or lower the signal
The source made the active and inactive calls. Rule for the calls: active = hit-call score of the fitted dose curve at least 0.9, where 1 is the maximum; inactive = score below 0.9.
Your reply should match one of these outcome classes. active, inactive

O=c1c(O)c(-c2ccc(O)c(O)c2)oc2cc(O)cc(O)c12 | active

INPUT: What outcome does the record of this test show for CCCCCCCCCCCCCCCCCC(=O)O ?
OUTPUT: inactive

INPUT: What outcome does the record of this test show for CCCCCCOCCO ?
OUTPUT: inactive

INPUT: What outcome does the record of this test show for Cc1c(C(=O)O)c(O)cc2c1C(=O)c1c(O)c([C@@H]3O[C@H](CO)[C@@H](O)[C@H](O)[C@H]3O)c(O)c(O)c1C2=O ?
OUTPUT: inactive

INPUT: What outcome does the record of this test show for C[Si]1(C)O[Si](C)(C)O[Si](C)(C)O[Si](C)(C)O1 ?
OUTPUT: inactive

INPUT: What outcome does the record of this test show for CC1(C)CC(N=C=O)CC(C)(CN=C=O)C1 (stereo not drawn) ?
OUTPUT: inactive

INPUT: What outcome does the record of this test show for CCCCCCCCCCCC(=O)OC ?
OUTPUT: inactive

INPUT: What outcome does the record of this test show for CCCCCCCCCCCCCO ?
OUTPUT: active

INPUT: What outcome does the record of this test show for Cc1ccc(C(C)C)c(O)c1 ?
OUTPUT: inactive

INPUT: What outcome does the record of this test show for C=CCc1ccc(O)c(OC)c1 ?
OUTPUT: inactive

INPUT: What outcome does the record of this test show for CCCCCCCCCCO ?
OUTPUT: inactive

INPUT: What outcome does the record of this test show for CN1CCN(Cc2cc(-c3ccc4[nH]c(=O)oc4c3)co2)[C@@H](c2ccc(F)cc2)C1 ?
OUTPUT: inactive

INPUT: What outcome does the record of this test show for Cc1cccc(C)c1O ?
OUTPUT: inactive

---

- Read-out: Thyroid Hormone Responsive (THRSP), THRSP (gene 7069)
- procedure summary: LTEA_HepaRG_THRSP: Life Technologies and Expression Analysis (LTEA) Assay for Thyroid Hormone Responsive (THRSP) using HepaRG (AID 2283536)
- test context: mRNA level, 48 h; actives raise or lower the signal
Calls of active or inactive are those of the source. How the source made its calls: active means hit-call score of the fitted dose curve at least 0.9, where 1 is the maximum; inactive means score below 0.9.
test readout: AC50

// solved cases for AC50 follow
Cc1cccc([N+](=O)[O-])c1C | inactive
CC(=O)C(C)=CC1C(C)=CCCC1(C)C (configuration not stated) | inactive
C[C@]12C=CC(=O)C=C1CC[C@@H]1[C@@H]2C(=O)C[C@@]2(C)[C@H]1CC[C@]2(O)C(=O)CO | inactive
CCCCC(CC)COC(=O)CC(C(=O)OCC(CC)CCCC)S(=O)(=O)O (configuration not stated) | inactive

INPUT: Please give the measured AC50 for this compound: CCCCCC(=O)O
OUTPUT: inactive

INPUT: Please give the measured AC50 for this compound: COc1ccc2c(c1)c(CC(=O)O)c(C)n2C(=O)c1ccc(Cl)cc1
OUTPUT: inactive

INPUT: Please give the measured AC50 for this compound: CCNc1cccc(C)c1
OUTPUT: inactive

INPUT: Please give the measured AC50 for this compound: CCCCCCC(=O)OCC
OUTPUT: inactive

INPUT: Please give the measured AC50 for this compound: NC(=O)Cn1c(=O)cc(CCN2CCN(c3nccc4sccc34)CC2)c2ccc(F)cc21
OUTPUT: 50 µM (active)

INPUT: Please give the measured AC50 for this compound: COc1cc(-c2nc(NC(=O)c3cc4cc(C)cc(C)c4n3CC(=O)O)sc2CCC2CCCCC2)c(OC)cc1Cl
OUTPUT: 6.89 µM (active)

INPUT: Please give the measured AC50 for this compound: COC(=O)c1ccc(O)cc1
OUTPUT: inactive

INPUT: Please give the measured AC50 for this compound: CCCCCCCCCCC
OUTPUT: inactive

INPUT: Please give the measured AC50 for this compound: Cc1cc(=O)[nH]c(=S)[nH]1
OUTPUT: inactive
